tested on: HT-29 cells; experiment: MTT cell viability assay, HT-29; assay type: cell-based, human; details: HT-29, 24 h, MTT

compound | IC50
CC1(C)CCC2(C(=O)O)CCC3(C)C(=CCC4C5(C)CCC(OC(=O)CCC(=O)O)C(C)(C)C5CCC43C)C2C1 (stereo not shown) [KS1] | > 100 µM

====

Measured pIC50 of individual entries
tested on: MCF7 cells; test: MTT cell viability assay, MCF7; format: cell-based, human; settings: Homo sapiens; MCF7, 72 h, MTT
pIC50: −log10 of the molar value.
readout.kind: pIC50

compound | value.relation.sign | numeric.readout
COc1cc(/C=C/C(=O)CC(=O)/C=C/c2ccc(O)c(OC)c2)ccc1O | = | 5.12
COc1cc(/C=C/c2cc(/C=C/c3ccc(OC(=O)CCC(=O)OC4CCC5(C)C(CCC6(C)C5CC=C5C7CC(C)(C)CCC7(C(=O)O)CCC56C)C4(C)C)c(OC)c3)[nH]n2)ccc1O (stereo not shown) | = | 4.69
COc1cc(/C=C/c2cc(/C=C/c3ccc(OC(=O)CCC(=O)OC4CCC5(C)C(CCC6(C)C5CC=C5C7CC(C)(C)CCC7(C(=O)O)CCC56C)C4(C)C)c(OC)c3)on2)ccc1O (stereo not shown) | = | 4.42
COC(=O)C12CCC(C)(C)CC1C1=CCC3C4(C)CCC(OC(=O)CCC(=O)Oc5ccc(/C=C/c6cc(/C=C/c7ccc(O)c(OC)c7)n[nH]6)cc5OC)C(C)(C)C4CCC3(C)C1(C)CC2 (stereo not shown) | = | 4.52
COC(=O)C12CCC(C)(C)CC1C1=CCC3C4(C)CCC(OC(=O)CCC(=O)Oc5ccc(/C=C/c6cc(/C=C/c7ccc(O)c(OC)c7)no6)cc5OC)C(C)(C)C4CCC3(C)C1(C)CC2 (stereo not shown) | < | 4.00
COC(=O)C12CCC(C)(C)CC1C1=CCC3C4(C)CCC(OC(=O)CCC(=O)Oc5ccc(/C=C/C(O)=C/C(=O)/C=C/c6ccc(O)c(OC)c6)cc5OC)C(C)(C)C4CCC3(C)C1(C)CC2 (stereo not shown) | < | 4.00
COc1cc(/C=C/C(=O)/C=C(O)/C=C/c2ccc(OC(=O)CCC(=O)OC3CCC4(C)C(CCC5(C)C4CC=C4C6CC(C)(C)CCC6(C(=O)O)CCC45C)C3(C)C)c(OC)c2)ccc1O (stereo not shown) | < | 4.00

====

system: HT-29 cells; assay: MTT cell viability assay, HT-29; format: cell-based, human; settings: HT-29, 48 h, MTT
pIC50: −log10 of the molar value.
readout.kind: pIC50

compound | readout.kind | result
CC1(C)CCC2(C(=O)O)CCC3(C)C(=CCC4C5(C)CCC(OC(=O)CCC(=O)O)C(C)(C)C5CCC43C)C2C1 (stereo not shown) | pIC50 | < 4.00

====

test system: MCF7 cells; test: MTT cell viability assay, MCF7; format: cell-based, human; conditions: Homo sapiens; MCF7, 48 h, MTT
pIC50: −log10 of the molar value.
Measured pIC50 of individual entries
readout.kind: pIC50

compound | value.relation.sign | numeric.readout
COc1cc(/C=C/c2cc(/C=C/c3ccc(OC(=O)CCC(=O)OC4CCC5(C)C(CCC6(C)C5CC=C5C7CC(C)(C)CCC7(C(=O)O)CCC56C)C4(C)C)c(OC)c3)on2)ccc1O (stereo not shown) [KS5] | = | 4.34
COC(=O)C12CCC(C)(C)CC1C1=CCC3C4(C)CCC(OC(=O)CCC(=O)Oc5ccc(/C=C/c6cc(/C=C/c7ccc(O)c(OC)c7)no6)cc5OC)C(C)(C)C4CCC3(C)C1(C)CC2 (stereo not shown) [KS7] | < | 4.00
COC(=O)C12CCC(C)(C)CC1C1=CCC3C4(C)CCC(OC(=O)CCC(=O)Oc5ccc(/C=C/C(O)=C/C(=O)/C=C/c6ccc(O)c(OC)c6)cc5OC)C(C)(C)C4CCC3(C)C1(C)CC2 (stereo not shown) [KS3] | < | 4.00
COc1cc(/C=C/c2cc(/C=C/c3ccc(OC(=O)CCC(=O)OC4CCC5(C)C(CCC6(C)C5CC=C5C7CC(C)(C)CCC7(C(=O)O)CCC56C)C4(C)C)c(OC)c3)[nH]n2)ccc1O (stereo not shown) [KS6] | = | 4.59
COc1cc(/C=C/C(=O)/C=C(O)/C=C/c2ccc(OC(=O)CCC(=O)OC3CCC4(C)C(CCC5(C)C4CC=C4C6CC(C)(C)CCC6(C(=O)O)CCC45C)C3(C)C)c(OC)c2)ccc1O (stereo not shown) [KS4] | < | 4.00
COc1cc(/C=C/C(=O)CC(=O)/C=C/c2ccc(O)c(OC)c2)ccc1O [KS2, curcumin] | = | 4.84
COC(=O)C12CCC(C)(C)CC1C1=CCC3C4(C)CCC(OC(=O)CCC(=O)Oc5ccc(/C=C/c6cc(/C=C/c7ccc(O)c(OC)c7)n[nH]6)cc5OC)C(C)(C)C4CCC3(C)C1(C)CC2 (stereo not shown) [KS8] | = | 4.48
